# systemName: Biotinylated SARS-CoV-2 S protein RBD with a C-terminal AviTag (SARS-CoV-2, UniProt P0DTC2 319-541)
Would you mind telling me the reported kon of each entry?
One number for each entry, in M⁻¹ s⁻¹.

Please review the following examples before continuing.
{"binder": "NIH-CoVnb-113 (VHH) VHH: DVQLQESGGGLVQPGGSLRLSCAASGLTLDYYAIGWFRQAPGKEREGVSCISSSDGSTYYADSVKGRFTTSRDNAKNTVYLQMNSLKPEDTAVYYCAAVPSTYYSGTYYYTCHPGGMDYWGKGTLVTVSS", "kon [M⁻¹ s⁻¹]": 98200}
{"binder": "NIH-CoVnb-109 (VHH, not shown: large carriers) VHH: DVQLQESGGGLVQSGGSLRLSCAASGFTLDYYAIGWFRQAPGKEREGVSCITNSDGSTYYADSVKGRFTTSRDNAKNTVYLQMNSLKPEDTAVYYCASFPSTYYSGSYYYTCHPGGMDYWGKGTQVTVSS", "kon [M⁻¹ s⁻¹]": 32100}
{"binder": "NIH-CoVnb-108 (VHH, not shown: large carriers) VHH: DVQLQESGGGLVQPGGSLRLSCAASGFTLDYYAIGWFRQAPGKEREGVSCISNSGGSTYYADSVKGRFTTSRDNAKNTVYLQMNSLKPEDTAVYYCAAVPSTYYSGSYYYTCHPGGMDYWGKGTQVTVSS", "kon [M⁻¹ s⁻¹]": 40900}

Q: Fill in: kon of NIH-CoVnb-103 (VHH, not shown: large carriers) VHH: DVQLQESGGGLVQPGGSLRLSCAASGLTLDYYTIGWFRQAPGKEREGVSCISSSDDSTYYADSVKGRFTISRDNAKNTVYLQMNSLKPEDTAVYYCATAPGTYYKGSYYPMCHYYGMDYWGKGTQVTVSS is ___
Ans: 303000

Data origin, for the record: patent US20230235027A1
